Source: PubChem BioAssay (NCI)

tested on: ACHN renal; assay: NCI-60 one-dose screen, 48 h; settings: 10 µM unless noted
The panel holds about 83,000 compounds, 20% with a hit somewhere; the sample as a whole holds those more often. The source made the active and inactive calls. Rule for the calls: active = growth percent below 10; inactive = the rest.
Choose one outcome from this list and give only that: active, inactive

>  <Compound>
CCCCN1C(=O)/C(=c2\sc3n(c2=O)C2C(NN=3)N(CC)C(=O)N2CC)c2cc(C)ccc21 (stereo not given)

>  <Subject of test>
ACHN renal

>  <Class name>
inactive

$$$$
>  <Compound>
Nn1c(=O)n(-c2cccc(C(F)(F)F)c2)c(=O)c2cc(-c3ccc(F)cc3F)ccc21

>  <Subject of test>
ACHN renal

>  <Class name>
active

$$$$
>  <Compound>
COCCOc1ccc2ncc(C#Cc3cncc(C(=O)Nc4ccc(CN5CCN(C)CC5)c(C(F)(F)F)c4)c3)n2n1

>  <Subject of test>
ACHN renal

>  <Class name>
active

$$$$
>  <Compound>
NCCNC(=O)c1cccc(COc2ccccc2NC(=O)c2cc(Br)c(Br)[nH]2)c1

>  <Subject of test>
ACHN renal

>  <Class name>
inactive

$$$$
>  <Compound>
O=C(/C=C/c1csc(Br)n1)NO

>  <Subject of test>
ACHN renal

>  <Class name>
active

$$$$

Next item in the queue.
Request: Hi team, can someone confirm the assay call for "Cn1cc(-c2nnc(N)nc2-c2c[nH]c3ccc(F)cc23)c2cc(Br)ccc21" ?
Response: inactive
